Where do the numbers come from? From paper PMC2834294.

- TARGET OR TEST SYSTEM: TRPML3 (Homo sapiens)
- Sequence (Q8TDD5 whole entry): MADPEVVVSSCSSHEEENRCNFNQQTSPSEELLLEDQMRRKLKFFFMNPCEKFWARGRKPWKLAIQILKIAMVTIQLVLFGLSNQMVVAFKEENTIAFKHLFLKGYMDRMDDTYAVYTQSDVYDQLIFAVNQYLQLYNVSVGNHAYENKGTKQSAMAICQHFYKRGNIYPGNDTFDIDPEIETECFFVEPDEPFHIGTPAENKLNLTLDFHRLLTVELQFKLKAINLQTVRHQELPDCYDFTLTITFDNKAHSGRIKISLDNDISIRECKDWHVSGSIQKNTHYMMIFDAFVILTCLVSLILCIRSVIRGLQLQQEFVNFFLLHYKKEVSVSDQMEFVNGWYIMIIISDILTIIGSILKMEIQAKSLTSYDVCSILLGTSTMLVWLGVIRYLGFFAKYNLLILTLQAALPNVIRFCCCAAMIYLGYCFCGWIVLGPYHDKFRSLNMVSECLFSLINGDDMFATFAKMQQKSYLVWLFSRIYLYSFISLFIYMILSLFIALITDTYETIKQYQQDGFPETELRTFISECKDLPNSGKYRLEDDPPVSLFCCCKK
- TEST DESCRIPTION: Fura-2 calcium imaging, HEK293 cells transiently expressing TRPML3
- Type: cell-based
- ASSAY CONDITIONS: 10 µM compound, mean ±SEM (n≥3)
Decide using ⊗F340/F380 (TRPML3): a value greater than or equal to 0.7 is y, a smaller one is n.

1) CCOc1ccc(S(=O)(=O)N2CCCCC2)c(C)c1C = n
2) CCOc1ccc(S(=O)(=O)NC(C)(C)C)cc1-c1nc(=O)c2c([nH]1)c(C(C)(C)C)nn2C = y
3) O=S(=O)(Nc1ccccc1N1CCOCC1)c1ccc(Cl)s1 = y
4) O=S(=O)(NC1CCCCC1N1CCOCC1)c1ccc(Cl)cc1 (stereo not drawn) = y
5) CCCOc1cc(C)c(Cl)cc1S(=O)(=O)N(CC)CC = n
6) Cc1ccccc1S(=O)(=O)c1c(C)cc(C)n(C(C)C)c1=O = n
7) CCCC(=O)Oc1c(S(=O)(=O)c2ccc(C)cc2)c(C)nn1C(C)(C)C = y
8) Cc1ccc(S(=O)(=O)Nc2ccccc2-c2ccccc2)cc1 = n

(Q) Hi team, for CC1=CC(C)(C)N(C(=O)CN2C(=O)c3ccccc3C2=O)c2ccccc21 , is the recorded ⊗F340/F380 (TRPML3) at or above 0.7?
(A) y
